# Tested on: 361931-004-R-J1-PDC multicell spheroid viability;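 further: spheroids exposed to agents for seven days before readout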
# ASSAY PROTOCOL: Anticancer human tumor 361931-004-R-J1-PDC patient-derived colon adenocarcinoma cell line growth inhibition [PI3K]
# CONDITION CONTEXT: curve of first compound; second compound 1 µM
pIC50: −log10 of the molar value.
Item-by-item account of pIC50

[
  {
    "COMPOUND": "CCN1CCN(Cc2ccc(Nc3ncc(F)c(-c4cc(F)c5nc(C)n(C(C)C)c5c4)n3)nc2)CC1 + CC(Nc1ccc2c(c1)OCCn1cc(N3C(=O)OCC3C(F)F)nc1-2)C(N)=O",
    "pIC50": 6.84
  },
  {
    "COMPOUND": "C=CC(=O)N1CCN(c2nc(=O)n(-c3c(C)ccnc3C(C)C)c3nc(-c4c(O)cccc4F)c(F)cc23)C(C)C1 (stereo not drawn) + Cc1nc(NC(=O)N2CCCC2C(N)=O)sc1-c1ccnc(C(C)(C)C(F)(F)F)c1",
    "pIC50": "< 5.00"
  },
  {
    "COMPOUND": "Cn1nccc1Nc1nccc(-c2ccn(C(CO)c3ccc(Cl)c(F)c3)c(=O)c2)n1 (stereo not drawn) + COc1c(OCCCN2CCOCC2)ccc2c3n(c(=NC(=O)c4cnc(N)nc4)nc12)CCN3",
    "pIC50": "> 7.50"
  }
]
